# METHOD_DESCRIPTION: Pharmacokinetic study in rats after oral administration
# Type: in vivo, rat
# APPLIED_CONDITIONS: male, Sprague-Dawley, rat, oral administration, 50 mg/kg of 5-ASA, plasma
MEASUREMENT_KIND: Tmax (min)
# unit: min | format: bare number

So what's the measured Tmax for this one? Nc1ccc(O)c(C(=O)O)c1
30
